test system: Bacillus thuringiensis; assay: Antibacterial activity against Bacillus thuringiensis by twofold serial broth dilution method; type: functional
readout-label: MIC (µg/mL)
Lab book: enter the figure in µg/mL, no units written.

[[record]]
molecule = "CC1=CS/C(=C(\\C#N)C(=O)N2NC(=O)C3C4c5ccccc5C(c5ccccc54)C3C2=O)N1c1ccccc1 (stereo unspecified)"
readout_number = 12.5

[[record]]
molecule = "N#C/C(C(=O)N1NC(=O)C2C3c4ccccc4C(c4ccccc43)C2C1=O)=C1\\SCCCN1c1ccccc1 (stereo unspecified)"
readout_number = 50

[[record]]
molecule = "N#C/C(C(=O)N1NC(=O)C2C3c4ccccc4C(c4ccccc43)C2C1=O)=C1/Nc2ccccc2S1 (stereo unspecified)"
readout_number = 6

[[record]]
molecule = "O=C1NN(c2nc(-c3ccccc3)cs2)C(=O)C2C3c4ccccc4C(c4ccccc43)C12 (stereo unspecified)"
readout_number = 12.5

[[record]]
molecule = "O=C(N[C@H](CO)[C@H](O)c1ccc([N+](=O)[O-])cc1)C(Cl)Cl"
readout_number = 12.5

[[record]]
molecule = "N#C/C(C(=O)N1NC(=O)C2C3c4ccccc4C(c4ccccc43)C2C1=O)=C(\\S)Nc1ccccc1 (stereo unspecified)"
readout_number = 12.5

[[record]]
molecule = "N#C/C(C(=O)N1NC(=O)C2C3c4ccccc4C(c4ccccc43)C2C1=O)=C1\\SCCN1c1ccccc1 (stereo unspecified)"
readout_number = 12.5

[[record]]
molecule = "Nc1c(C(=O)c2ccccc2)sc(Nc2ccccc2)c1C(=O)N1NC(=O)C2C3c4ccccc4C(c4ccccc43)C2C1=O (stereo unspecified)"
readout_number = 50

[[record]]
molecule = "N#C/C(C(=O)N1NC(=O)C2C3c4ccccc4C(c4ccccc43)C2C1=O)=c1\\sc(=O)c(=C2C(=O)c3ccccc3C2=O)n1-c1ccccc1 (stereo unspecified)"
readout_number = 50

[[record]]
molecule = "N#C/C(C(=O)N1NC(=O)C2C3c4ccccc4C(c4ccccc43)C2C1=O)=C1\\SCC(=O)N1c1ccccc1 (stereo unspecified)"
readout_number = 12.5


// next entry
## Input Field: MIC (Bacillus thuringiensis). Entry: O=C1CSC(N2NC(=O)C3C4c5ccccc5C(c5ccccc54)C3C2=O)=N1 (stereo unspecified)
## Output 12.5

---

test system: Bacillus thuringiensis; assay: Antibacterial activity against Bacillus thuringiensis by twofold serial broth dilution method; type: functional
readout-label: MIC (mg/L)
Lab book: enter the figure in mg/L, no units written.

Look over these answered cases.
[[record]]
molecule = "CC1(C)S[C@@H]2[C@H](NC(=O)[C@H](N)c3ccccc3)C(=O)N2[C@H]1C(=O)O"
target_or_test_system = "Bacillus thuringiensis"
readout_label = "MIC"
unit_tag = "mg/L"
readout_number = 12.5

[[record]]
molecule = "Cc1csc(N2NC(=O)C3C4c5ccccc5C(c5ccccc54)C3C2=O)n1 (centres undefined)"
target_or_test_system = "Bacillus thuringiensis"
readout_label = "MIC"
unit_tag = "mg/L"
readout_number = 6

[[record]]
molecule = "CN(C)/C=N/N1C(=O)C2C3c4ccccc4C(c4ccccc43)C2C1=O (centres undefined)"
target_or_test_system = "Bacillus thuringiensis"
readout_label = "MIC"
unit_tag = "mg/L"
readout_number = 50


// next entry
## Input Query: MIC; subject: N#C/C(C(=O)N1NC(=O)C2C3c4ccccc4C(c4ccccc43)C2C1=O)=C1\SC=C(c2ccccc2)N1c1ccccc1 (centres undefined)
## Output 6
